experimental_target: T1, cynomolgus monkey MerTK (cynomolgus monkey, UniProt A0A2K5V1H9 32-505)
T1 construct: Soluble analyte in SPR; also called Cyno MerTK
T1 sequence: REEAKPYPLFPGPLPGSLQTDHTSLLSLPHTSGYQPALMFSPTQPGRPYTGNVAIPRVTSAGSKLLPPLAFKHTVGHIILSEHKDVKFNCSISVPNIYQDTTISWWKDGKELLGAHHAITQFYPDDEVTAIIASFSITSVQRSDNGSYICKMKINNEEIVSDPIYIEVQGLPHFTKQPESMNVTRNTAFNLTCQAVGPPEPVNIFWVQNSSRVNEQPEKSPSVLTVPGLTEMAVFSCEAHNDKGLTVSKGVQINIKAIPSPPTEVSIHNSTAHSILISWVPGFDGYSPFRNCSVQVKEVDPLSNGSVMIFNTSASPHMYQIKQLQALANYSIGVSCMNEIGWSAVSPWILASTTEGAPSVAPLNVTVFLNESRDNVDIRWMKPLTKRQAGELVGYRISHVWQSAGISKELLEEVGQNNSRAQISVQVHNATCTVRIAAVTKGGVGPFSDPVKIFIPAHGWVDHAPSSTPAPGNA
assay_overview: SPR BIAcore T200, Ab captured, 25C
Would you mind telling me the reported Kd of each entry?
Answers are plain numbers, in nM.

Quick one: give measured Kd for Rbt13B4 (antibody, V domains shown, Recombinant rabbit monoclonal antibody, Expi293, protein A purified; also called Rb13B4) VH: QSVEESGGRLVTPGTPLTLTCTVSGFSLSSYAMGWVRQAPGKGLEWIGIINSYGNTYYANWAKGRFTISRTSTTVDLRMPSLTTEDTATYFCARDPGVSSNLWGPGTLVTVSS VL: DVVMTQTPASVSEPVGGTVTIKCQASQNIYSGLAWYQQKPGQPPKLLIYGASKLASGVSSRFKGSGSGTEFTLTISDLECADAATYYCQATYYSSNSVAFGGGTEVVVK 1.8

Quick one: give measured Kd for Rbt13D8 (antibody, V domains shown, Recombinant rabbit monoclonal antibody, Expi293, protein A purified) VH: QSLEESGGRLVTPGTPLTLTCTVSGFSFSSYSMGWVRQAPGKGPEYIGVISASGTTYYASWVNGRFTISKTSTTMDLKMTSPTAADTATYFCARAAFTAYNRGSCVIHRLDLWGQGTLVTVSS VL: AQVLTQTASSVSAAVGGTVTINCQASQSVYDSKWLAWYQQKPGQPPKLLIYSASTLASGVPSRFKGSGSGTQFTLTISDLECDDAATYYCAGAYTDNIVFGGGTEVVVK 3.8

Note: attention shifts to another entry.
Quick one: give measured Kd for Rbt11G11 (antibody, V domains shown, Recombinant rabbit monoclonal antibody, Expi293, protein A purified) VH: QELVESGGGLVQAGESLKLSCKASGIDFSSYGISWVRQAPGKGLEWIAYIYPGFGITNYAHSVKGRFTISSDNAQNTVFLQMPSLTASDTATYFCARDLDYTGGVVGYAYVTYYFTLWGPGTLVTVSS VL: DPVLTQTPSSVEAAVGGTVTIKCQASESISSRLAWYQQKPGQPPKLLIYSASTLASGVSSRFKGSGSGTEFTLTISDLECADAATYYCQTYYGGSTTGWYVFGGGTEVVVK 14.3
